All figures here come from patent US20180267067A1.

Assay comment: DON plasma pharmacokinetics in mice after i.v. administration (LC-MS after acidified butanol derivatization)
Format: in vivo
Condition info: male, C57BL/6, mouse, iv, 1.6 mg/kg i.v.
Readout kind: half-life (h)
Express it in h; write the number only.

Lookup: Which half-life value belongs to [N-]=[N+]=CC(=O)CC[C@H](N)C(=O)O ?
Found: 1.2

###

Assay comment: DON plasma pharmacokinetics in mice after i.v. administration (LC-MS after acidified butanol derivatization)
Assay type: in vivo
Condition info: male, C57BL/6, mouse, in vivo, iv, 1.6 mg/kg i.v., 0.25-6 h, read-out: exposure of DON estimated from the area under the curve (AUC)
Readout kind: AUC

Lookup: Sample [N-]=[N+]=CC(=O)CC[C@H](N)C(=O)O — what was its AUC?
Found: 8 µM·h
